Biological target: Dihydrofolate reductase (Bacillus anthracis, UniProt Q81R22)
Sequence (Q81R22 whole entry): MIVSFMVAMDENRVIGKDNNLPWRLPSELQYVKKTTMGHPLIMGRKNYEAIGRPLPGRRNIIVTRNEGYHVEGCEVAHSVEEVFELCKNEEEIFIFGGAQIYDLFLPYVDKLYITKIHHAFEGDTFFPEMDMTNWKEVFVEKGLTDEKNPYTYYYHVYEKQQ
parameter-measured: pIC50
A value of pIC50 is the negative decimal logarithm of a concentration given in moles per litre.

Summary for this molecule, CN(c1ccc(C(=O)NC(CCC(=O)O)C(=O)O)cc1)c1cnc2nc(N)nc(N)c2n1 (stereo unspecified) : pIC50 is 7.82

All values here come from ChEMBL document CHEMBL1148763.
